target_or_test_system: T1, soluble extracellular region of human CD38 fused to a 6-His-tag (human, UniProt P28907 43-300)
T1 construct: Extracellular region = UniProt P28907 residues 43-300, with a 6-His-tag at the C-terminal end; also called human CD38 protein; human CD38 antigen
assay_summary: SPR, antibody captured on protein G chip, CD38-His injected
Please go through the items and note down their Kd.
Only the number, expressed in nM, is required.

[ask] For the binder shown here, humanized HB-7 best-fit antibody (antibody, human IgG1, kappa, V domains shown, Human IgG1 format) VH: QVQLQESGPGLVKPSETLSLTCTVSGFSLISYGVHWVRQPPGKGLEWLGVIWRGGSTDYNAAFMSRLTISKDNSKNQVSLKLSSVTAADTAVYFCAKTLITTGYAMDYWGQGTLVTVSS VL: DIQLTQSPSSLSASVGDRVTITCRASEDIYNRLAWYQQKPGKAPKLLISGATSLETGVPSRFSGSGSGKDYTLTISSLQPEDFATYYCQQYWSTPTFGQGTKLEIKR , give the reported Kd.
[reply] 3.6

[ask] For the binder shown here, humanized 9G7 best-fit antibody (antibody, human IgG1, kappa, V domains shown, also called 9G7 best-fit F36Y humanized variant) VH: QVTLKESGPTLVKPTQTLTLTCTFSGLSLSTSGKGVGWIRQPPGKALEWLAHIWWDDDKRYNPALKSRLTITKDTSKNQVVLTMTNMDPVDTATYYCARIELGRSYVMDYWGQGTLVTVSS VL: DIQMTQSPSSLSASVGDRVTITCQASQDVITSVAWYQQKPGKAPKLLIYSASYRYTGVPSRFSGSGSGTDFTFTISSLQPEDIATYYCQQHYTIPLTFGQGTKLEIKR , give the reported Kd.
[reply] 0.5

[ask] For the binder shown here, humanized 9G7 best-framework antibody (antibody, human IgG1, kappa, V domains shown, Human IgG1) VH: EVQLVESGGGLVQPGGSLRLSCAFSGLSLSTSGKGVGWIRQAPGKGLEWLAHIWWDDDKRYNPALKSRLTISKDTSKNTVYLQMNSLRAEDTAVYYCARIELGRSYVMDYWGQGTLVTVSS VL: DIQMTQSPSSLSASVGDRVTITCRASQDVITSVAWFQQKPGKAPKLLIYSASYRYTGVPSRFSGSGSGTDFTLTISSLQPEDFATYYCQQHYTIPLTFGQGTKVEIKR , give the reported Kd.
[reply] 0.4

[ask] For the binder shown here, chimeric HB-7 antibody (antibody, human IgG1, kappa, V domains shown) VH: KVQLQESGPSLVQPSQRLSITCTVSGFSLISYGVHWVRQSPGKGLEWLGVIWRGGSTDYNAAFMSRLSITKDNSKSQVFFKMNSLQADDTAIYFCAKTLITTGYAMDYWGQGTTVTVSS VL: DIELTQSPSSFSVSLGDRVTITCKASEDIYNRLAWYQQKPGNAPRLLISGATSLETGVPSRFSGSGSGKDYTLSITSLQTEDVATYYCQQYWSTPTFGGGTKLEIKR , give the reported Kd.
[reply] 2.5
